target: Ac-VQIINK-NH2 (SEQ ID NO: 23) (N-terminal acetyl (Ac); C-terminal amide (NH2)); assay: cell-based or functional assay
Square brackets hold non-standard residues; d marks the D form. Ends that are not written are not given here.
Some binders, each annotated with its measured VQIINK Inhibition IC50.
READOUT_TYPE: VQIINK Inhibition IC50 (µm)

>>> print(df.to_string())
                                     binder  assay_result
0  [dW][dR][dL][dK][dV][dR][dW][dF] [wrlkvrwf]          2.53
1  [dW][dL][dR][dV][dQ][dV][dK][dL][dW] [wlrvqvklw]          1.25
2  [dL][dK][dI][dR][dI][dA][dY][dH] [lkiriayh]          5.21
3  [dL][dR][dI][dR][dI][dH][dY][dH] [lririhyh]          3.34
4    [dA][dR][dL][dR][dI][dH][dW] [arlrihw]          6.61
5    [dW][dR][dL][dQ][dV][dR][dW] [wrlqvrw]          2.12
6    [dW][dR][dL][dK][dV][dQ][dW] [wrlkvqw]          2.15
